METHOD SUMMARY: Metabolic stability in mouse liver microsomes (MLMs)
Format: in vitro ADME
MEASUREMENT CONTEXT: male, CD-1, mouse, liver microsomes, pH 7.4, protein concentration 0.8, NADPH regenerating system, read-out: % Remaining after 30 min
RECORDED ENDPOINT: remaining at 0.5 h, 20 µM (%)
Numbers only, in %.

Exam item: Look up and state reported remaining at 0.5 h, 20 µM for CCC(CN1CCN(c2ccccc2OC)CC1)NCCCOc1c(C)cccc1C.Cl.Cl (stereo not shown)
Marked response: 36

* * *

METHOD SUMMARY: MTT viability assay in HepG2 cells
Format: cell-based
MEASUREMENT CONTEXT: human, HBK-10 25 μM, % of control, read-out: Viability (% ± SEM)
Procedure: To investigate the lack of hepatotoxicity of HBK-10 at 25 µM concentration, we used HepG2 cells. Viability was measured using 3-(4,5-dimethyl-thiazol-2-yl)-2,5-diphenyltetrazolium (MTT) assay. […] To investigate the preliminary hepatic safety of HBK-10 at the concentration used in metabolic stability study, a human hepatocellular carcinoma cell line—HepG2 (HB-8065TM, ATCC, Manassas, VA, USA) was used in the study. […] Following the incubation cells viability was measured with MTT assay. […]
RECORDED ENDPOINT: viability at 24 h, 25 µM (%)
One number for each entry, in %.

Exam item: Look up and state reported viability at 24 h, 25 µM for CCC(CN1CCN(c2ccccc2OC)CC1)NCCCOc1c(C)cccc1C.Cl.Cl (stereo not shown)
Marked response: 99
